Molecular target: Topoisomerase IV (Staphylococcus aureus) (UniProt P0C1U9+P0C1S7)
Assay: Inhibition of Staphylococcus aureus DNA topoisomerase 4 assessed as residual enzyme activity at 100 uM using relaxed pNO1 plasmid and biotinylated oligonucelotide incubated for 30 mins by fluorescence based DNA relaxation assay
Format: protein-complex assay
measurement type: Activity
Put your answer as a value accompanied by its unit after it.

stdin: I have this compound here, `Nc1nc2c(s1)C[C@@H](NC(=O)c1cc(Cl)c(Cl)[nH]1)CC2` , and I need its recorded Activity.
stdout: 98%

stdin: I have this compound here, `O=C(O)CC(=O)Nc1nc2c(s1)C[C@H](NC(=O)c1cc(Br)c(Br)[nH]1)CC2` , and I need its recorded Activity.
stdout: 102%

stdin: I have this compound here, `COC(=O)CC(=O)Nc1nc2c(s1)C[C@@H](NC(=O)c1cc(Cl)c(Cl)[nH]1)CC2` , and I need its recorded Activity.
stdout: 101%

stdin: I have this compound here, `O=C(O)C(=O)Nc1nc2c(s1)C[C@@H](NC(=O)c1cc3ccccc3[nH]1)CC2` , and I need its recorded Activity.
stdout: 99%

stdin: I have this compound here, `NC(=O)CC(=O)Nc1nc2c(s1)C[C@@H](NC(=O)c1cc(Br)c(Br)[nH]1)CC2` , and I need its recorded Activity.
stdout: 98%

====

System: Escherichia coli
Assay: Antibacterial activity against wild type Escherichia coli ATCC 25922 assessed as inhibition of microbial growth at 50 uM by broth microdilution method
Assay type: functional
Conditions: read-out: GI
measurement type: inhibition of growth at 50 µM

stdin: I have this molecule here, `CCOC(=O)C(=O)Nc1nc2c(s1)C[C@@H](NC(=O)c1cc(Cl)c(Cl)[nH]1)CC2` , and I need its recorded inhibition of growth at 50 µM.
stdout: < 50%

stdin: I have this molecule here, `COC(=O)CC(=O)Nc1nc2c(s1)C[C@@H](NC(=O)c1cc(Cl)c(Cl)[nH]1)CC2` , and I need its recorded inhibition of growth at 50 µM.
stdout: < 50%

stdin: I have this molecule here, `Nc1nc2c(s1)C[C@@H](NC(=O)c1cc3cc(Cl)ccc3[nH]1)CC2` , and I need its recorded inhibition of growth at 50 µM.
stdout: < 50%

stdin: I have this molecule here, `O=C1CCN2C(=N1)SC1=C2CC[C@H](NC(=O)c2cc(Br)c(Br)[nH]2)C1` , and I need its recorded inhibition of growth at 50 µM.
stdout: < 50%

stdin: I have this molecule here, Nc1ncc2c(n1)CCC(NC(=O)c1cc(Br)c(Br)[nH]1)C2 (centres undefined) , and I need its recorded inhibition of growth at 50 µM.
stdout: < 50%

stdin: I have this molecule here, `O=C(O)CCC(=O)Nc1nc2c(s1)C[C@@H](NC(=O)c1cc3ccccc3[nH]1)CC2` , and I need its recorded inhibition of growth at 50 µM.
stdout: < 50%

stdin: I have this molecule here, `COC(=O)CCC(=O)Nc1nc2c(s1)C[C@@H](NC(=O)c1cc3ccccc3[nH]1)CC2` , and I need its recorded inhibition of growth at 50 µM.
stdout: < 50%

stdin: I have this molecule here, `Nc1nc2c(s1)C[C@@H](NC(=O)c1cc(Br)c(Br)[nH]1)CC2` , and I need its recorded inhibition of growth at 50 µM.
stdout: < 50%

stdin: I have this molecule here, `O=C(O)C(=O)Nc1nc2c(s1)C[C@@H](NC(=O)c1cc(Br)c(Br)[nH]1)CC2` , and I need its recorded inhibition of growth at 50 µM.
stdout: < 50%

====

System: Escherichia coli
Assay: Inhibition of Escherichia coli DNA topoisomerase 4 assessed as residual enzyme activity at 100 uM using relaxed pNO1 plasmid and biotinylated oligonucelotide incubated for 30 mins by fluorescence based DNA relaxation assay
For each entry below, report its Activity value.
Express the result in % but write the number alone.

stdin: I have this compound here, `COC(=O)CCC(=O)Nc1nc2c(s1)C[C@@H](NC(=O)c1cc3ccccc3[nH]1)CC2` , and I need its recorded Activity.
stdout: 101

stdin: I have this compound here, `Nc1nc2c(s1)C[C@@H](NC(=O)c1cc(Cl)c(Cl)[nH]1)CC2` , and I need its recorded Activity.
stdout: 97

stdin: I have this compound here, `COC(=O)CCC(=O)Nc1nc2c(s1)C[C@@H](NC(=O)c1cc(Cl)c(Cl)[nH]1)CC2` , and I need its recorded Activity.
stdout: 100

stdin: I have this compound here, `O=C(O)CC(=O)Nc1nc2c(s1)C[C@H](NC(=O)c1cc(Br)c(Br)[nH]1)CC2` , and I need its recorded Activity.
stdout: 96

stdin: I have this compound here, `COC(=O)CCC(=O)Nc1nc2c(s1)C[C@@H](NC(=O)c1cc(Br)c(Br)[nH]1)CC2` , and I need its recorded Activity.
stdout: 97

stdin: I have this compound here, COC(=O)CC(=O)Nc1ncc2c(n1)CCC(NC(=O)c1cc(Br)c(Br)[nH]1)C2 (centres undefined) , and I need its recorded Activity.
stdout: 97

stdin: I have this compound here, `Nc1nc2c(s1)C[C@H](NC(=O)c1cc(Br)c(Br)[nH]1)CC2` , and I need its recorded Activity.
stdout: 96

stdin: I have this compound here, `CCOC(=O)C(=O)Nc1nc2c(s1)C[C@@H](NC(=O)c1cc3ccccc3[nH]1)CC2` , and I need its recorded Activity.
stdout: 101

stdin: I have this compound here, `O=C(O)CCC(=O)Nc1nc2c(s1)C[C@@H](NC(=O)c1cc(Cl)c(Cl)[nH]1)CC2` , and I need its recorded Activity.
stdout: 72

stdin: I have this compound here, `CC(=O)Nc1nc2c(s1)C[C@@H](NC(=O)c1cc(Br)c(Br)[nH]1)CC2` , and I need its recorded Activity.
stdout: 98

stdin: I have this compound here, `Nc1nc2c(s1)C[C@@H](NC(=O)c1cc3ccccc3[nH]1)CC2` , and I need its recorded Activity.
stdout: 103

stdin: I have this compound here, `O=C(O)C(=O)Nc1nc2c(s1)C[C@@H](NC(=O)c1cc3ccccc3[nH]1)CC2` , and I need its recorded Activity.
stdout: 47

stdin: I have this compound here, `O=C(O)CC(=O)Nc1nc2c(s1)C[C@@H](NC(=O)c1cc(Br)c[nH]1)CC2` , and I need its recorded Activity.
stdout: 96

stdin: I have this compound here, `O=C(O)CC(=O)Nc1nc2c(s1)C[C@@H](NC(=O)c1cc3ccccc3[nH]1)CC2` , and I need its recorded Activity.
stdout: 96

====

System: Escherichia coli
Assay: Inhibition of Escherichia coli DNA topoisomerase 4 assessed as residual enzyme activity at 100 uM using relaxed pNO1 plasmid and biotinylated oligonucelotide incubated for 30 mins by fluorescence based DNA relaxation assay
measurement type: Activity (%)
Express the result in % but write the number alone.

stdin: I have this compound here, Nc1ncc2c(n1)CCC(NC(=O)c1cc(Br)c(Br)[nH]1)C2 (centres undefined) , and I need its recorded Activity.
stdout: 102

stdin: I have this compound here, `NC(=O)CC(=O)Nc1nc2c(s1)C[C@@H](NC(=O)c1cc(Br)c(Br)[nH]1)CC2` , and I need its recorded Activity.
stdout: 97

stdin: I have this compound here, `O=C(O)CCC(=O)Nc1nc2c(s1)C[C@@H](NC(=O)c1cc(Br)c(Br)[nH]1)CC2` , and I need its recorded Activity.
stdout: 90

stdin: I have this compound here, `COC(=O)CC(=O)Nc1nc2c(s1)C[C@@H](NC(=O)c1cc(Br)c[nH]1)CC2` , and I need its recorded Activity.
stdout: 95

stdin: I have this compound here, `CCOC(=O)C(=O)Nc1nc2c(s1)C[C@@H](NC(=O)c1cc(Br)c(Br)[nH]1)CC2` , and I need its recorded Activity.
stdout: 74

stdin: I have this compound here, `COC(=O)CC(=O)Nc1nc2c(s1)C[C@H](NC(=O)c1cc(Br)c(Br)[nH]1)CC2` , and I need its recorded Activity.
stdout: 101

stdin: I have this compound here, `Nc1nc2c(s1)C[C@@H](NC(=O)c1cc(Br)c(Br)[nH]1)CC2` , and I need its recorded Activity.
stdout: 101

stdin: I have this compound here, `O=C(O)CC(=O)Nc1nc2c(s1)C[C@@H](NC(=O)c1cc(Cl)c(Cl)[nH]1)CC2` , and I need its recorded Activity.
stdout: 98

stdin: I have this compound here, `O=C(O)CCC(=O)Nc1nc2c(s1)C[C@@H](NC(=O)c1cc3ccccc3[nH]1)CC2` , and I need its recorded Activity.
stdout: 99

====

Test system: Escherichia coli
Experiment: Antibacterial activity against wild type Escherichia coli ATCC 25922 assessed as inhibition of microbial growth by broth microdilution method
Format: functional
measurement type: MIC

stdin: I have this compound here, `O=C(O)CC(=O)Nc1nc2c(s1)C[C@@H](NC(=O)c1cc(Br)c[nH]1)CC2` , and I need its recorded MIC.
stdout: > 125 µM

stdin: I have this compound here, `NC(=O)CC(=O)Nc1nc2c(s1)C[C@@H](NC(=O)c1cc(Br)c(Br)[nH]1)CC2` , and I need its recorded MIC.
stdout: > 125 µM

stdin: I have this compound here, `Nc1nc2c(s1)C[C@@H](NC(=O)c1cc(Br)c(Br)[nH]1)CC2` , and I need its recorded MIC.
stdout: > 125 µM

stdin: I have this compound here, `Nc1nc2c(s1)C[C@@H](NC(=O)c1cc(Cl)c(Cl)[nH]1)CC2` , and I need its recorded MIC.
stdout: > 125 µM

stdin: I have this compound here, `O=C(O)C(=O)Nc1nc2c(s1)C[C@@H](NC(=O)c1cc3ccccc3[nH]1)CC2` , and I need its recorded MIC.
stdout: > 125 µM

stdin: I have this compound here, `COC(=O)CC(=O)Nc1nc2c(s1)C[C@@H](NC(=O)c1cc(Br)c[nH]1)CC2` , and I need its recorded MIC.
stdout: > 125 µM

stdin: I have this compound here, `O=C(O)C(=O)Nc1nc2c(s1)C[C@@H](NC(=O)c1cc(Cl)c(Cl)[nH]1)CC2` , and I need its recorded MIC.
stdout: > 125 µM

stdin: I have this compound here, `O=C(O)CCC(=O)Nc1nc2c(s1)C[C@@H](NC(=O)c1cc3ccccc3[nH]1)CC2` , and I need its recorded MIC.
stdout: > 125 µM

stdin: I have this compound here, `O=C(O)CCC(=O)Nc1nc2c(s1)C[C@@H](NC(=O)c1cc(Br)c(Br)[nH]1)CC2` , and I need its recorded MIC.
stdout: > 125 µM
